Quick list: melting point per entry.
measured quantity: melting point

compound	measured quantity	data value
CC(CO)Oc1cc(Oc2ccc(S(C)(=O)=O)cc2)cc2cc(C3=NCC(CCO)S3)[nH]c12 (centres undefined)	melting point	165 to 169 °C
O=C1OC(=Cc2ccccc2C(F)(F)F)C(O)=C1c1ccc(-c2ccccc2)cc1	melting point	228 to 230 °C
O=C1CCC(N2C(=O)c3ccc(CNC(=O)c4ccc(Cl)cc4)cc3C2=O)C(=O)N1 (centres undefined)	melting point	178 to 180 °C
CC(C)c1nc(-c2cccc3c2OCO3)cc(-c2ccc(F)cc2)c1CO	melting point	114 to 115 °C
CCOC(=NC(=O)c1cccc2ccccc12)c1ccc(Br)cc1	melting point	104 to 105 °C
O=C(O)CCC(O)c1ccc(-c2ccccc2)c(F)c1 (centres undefined)	melting point	133 to 135 °C
O=C(c1ccc2c(c1)OCCO2)c1ccc2noc(-c3cccc(Cl)c3)c2c1	melting point	195 °C
Cc1cc(C)nc(NC(=O)NS(=O)(=O)c2ccccc2C(=O)N(C)C)n1	melting point	166 to 168 °C
Cc1oc(-c2ccccc2)nc1/C=C/c1ccc(/C=C/CO)cc1	melting point	165 to 166 °C

----------
Quick list: melting point per entry.

compound	melting point
COc1cc2ncnc(N3CCC(C(C)(O)CN4CCCS4(=O)=O)CC3)c2cc1OC (stereo unspecified)	173 to 174 °C
Cc1ccc(CC(=O)c2sccc2S(=O)(=O)Nc2onc(C)c2C)cc1	95 to 100 °C
COC(=O)C(C)N(C(=O)CS)c1c(C)cccc1C (stereo unspecified)	62.5 to 63 °C
CCCOc1ccc(/C=C/C(=O)O)cc1-c1nc2c(c(C)nn2CCC)c(=O)[nH]1	231 to 232 °C
N#Cc1[nH]c([N+](=O)[O-])c(Br)c1Br	181 to 186 °C
O=C1COCCN1c1ccc(N2C[C@@H](CI)OC2=O)cc1	154 to 157 °C

----------
Quick list: melting point per entry.

compound	melting point
Cc1oc(-c2ccccc2)nc1CCOc1ccc(Cn2cc(CCC(=O)O)c(-c3ccccc3)n2)cc1	142 to 143 °C
FC(F)(F)c1cccc(-c2[nH]c(C3CCNCC3)cc2-c2ccncc2)c1	106 to 112 °C
Clc1ccccc1C1=NN=C(c2ccccc2Cl)C(c2ccccc2)C1 (stereo not given)	151 to 153 °C
CCn1c(=O)c2conc2n(C)c1=O	87 to 88 °C
CCOC(=O)Cc1cnc(N)s1	101 °C
CS(=O)c1cccc(-c2ncn(CCCN3CCOCC3)c2-c2ccncc2)c1 (stereo not given)	117 to 118 °C
CC(=O)OCC1OC(C2=NNC(N)(c3ccc(Cl)c(Cl)c3)O2)C(OC(C)=O)C(OC(C)=O)C1OC(C)=O (stereo not given)	180 to 181 °C
CCOC(=O)N1Cc2[nH]c3ccc(F)cc3c2C1	248 to 249 °C
CCCCCc1cc(N)cc(O)c1	88 to 91 °C
O=C1c2ccccc2-c2c1c(-n1ccnc1)nc1ccc(Br)cc21	283 to 285 °C
Cc1nc2cc(NC(=O)c3cc4cc(C(F)(F)F)ccc4n3Cc3cccc(F)c3)ccn2c1C	280 to 281 °C
CCNC(=O)Nc1cnc2ccc(Nc3ccc(C)cc3)nc2n1	235 °C
CCOC(Cc1ccc(OCc2nc3ccc(OC)cc3n2C)cc1)C(=O)OC (stereo not given)	88 to 92 °C
COc1ccc(Cn2nc(-c3ccc(SC)cc3)c(-c3ccc(F)cc3)cc2=O)cc1	165 to 166 °C
CCOC(=O)/C(=N\OCC#N)c1csc(N)n1	167 to 168 °C
CCCCCCCCCCOc1ccc(Cc2cnc(N)nc2N)cc1OC	169 °C
CCOC(=O)c1cn(C(=O)c2ccccc2)c2sc(-c3ccc(OC)cc3)c(CBr)c2c1=O	124 to 126 °C
N#Cc1c(F)ccc(OCc2nc3cc(Cl)ccc3s2)c1F	145 to 147 °C
CP(C)(=O)COC(=O)c1ccc(-n2c(-c3ccccc3)cc3c2-c2ccccc2CC3)cc1	171 to 173 °C
COCC(=O)OC(CC1CC1)c1ccc(Cl)c2nc3n(c12)CCCN3c1ccc(Cl)cc1Cl (stereo not given)	159 to 161 °C

----------
measured quantity: melting point

compound	measured quantity	data value
Nc1nc(Oc2cc(F)cc(F)c2)nc2nc(-c3ccco3)nn12	melting point	> 300 °C
COC1c2ccccc2C(=O)N1CCN1CCC(Cc2c[nH]c3ccc(F)cc23)CC1 (racemic)	melting point	175 °C
Oc1cc(Br)cc(-c2ccc3nonc3c2)c1	melting point	179 to 181 °C
CCOC(=O)C(O)CCc1ccc(C(=O)CCc2nc(-c3ccccc3)oc2C)cc1 (stereo not given)	melting point	87 to 88 °C
CC(=O)Nc1nc(-c2ccc(O)cc2O)cs1	melting point	264 °C
O=[N+]([O-])c1ccc(SNCCO)c(C(Cl)(Cl)Cl)c1	melting point	85 °C
Cc1ccc2c(c1)C(=O)C(CC=O)C2 (racemic)	melting point	53 to 54 °C
O=C(CBr)Nc1cccc(F)c1C(=O)O	melting point	169 to 170 °C
C=CC[C@@H]1C[C@@H](COc2ccc(CCCCNC(=O)OC(C)(C)C)cc2)N(CCc2ccc3ccccc3c2)C1=O	melting point	79 to 83 °C
Brc1cnn(Cc2ccccc2)c1	melting point	51 to 52 °C

----------
Quick list: melting point per entry.

compound	melting point
C=CCOC(=O)C(CCn1c(=O)c2c(ncn2C)n(C)c1=O)N(C)S(=O)(=O)c1ccc(Oc2ccccc2)cc1 (centres undefined)	207 to 209 °C
COC(=O)C(CCC(C)(C)Cl)N(C)S(=O)(=O)NC(=O)OCc1ccccc1 (centres undefined)	77 to 78 °C
CN1CCC(c2cccc(C(F)(F)F)c2)(C(C)(C)O)CC1	111 to 112 °C
CN(C)CCCC(C#N)(c1ccc(Cl)cc1)c1ccc(-n2ncc(=O)[nH]c2=O)cc1Cl (centres undefined)	140 °C
Nc1nc2ccc(S(=O)(=O)n3c(CCCC(=O)O)cc4nc(Cl)ccc43)cc2o1	273 °C
NC(=O)CNC(=O)c1ccc(-c2cccc3cc(Cc4cccc(C(F)(F)F)c4)sc23)cc1	134 to 136 °C
CCN1CCC(=NO)c2ccn(CCCCN3CCC(C(=O)c4ccc(F)cc4)CC3)c2C1=O	158 to 160 °C
C=C1C=C(Oc2cc(C(=O)O)ccc2OC)C1(F)F	163 to 165 °C
Cc1ccc2c(=O)n(CCCN3CC=C(c4ccc(Cl)cc4)CC3)c(=O)[nH]c2c1	199 to 201 °C

----------
Quick list: melting point per entry.
measured quantity: melting point

compound	measured quantity	data value
O=C1C=CC2=C3OC=CC=C3C=CC2O1 (stereo not given)	melting point	96 to 98 °C
Cc1nc2c(OCc3ccccc3)cc(CO)cn2c1C	melting point	213 to 215 °C
COc1cccc(N(C(=O)c2ccc(-c3cccc(C)c3)s2)C2CC2)c1	melting point	68 °C
CCCc1c(OCCCCC(=O)c2ccc3cc(OC)c(OC)cc3c2)ccc(C(=O)O)c1O	melting point	177 to 178 °C
CN(C)CCCNC(=O)[C@@H](Cc1ccc(-c2ccccc2)cc1)NC(=O)CC(C)(C)CC(=O)O	melting point	84 to 92 °C

----------
Quick list: melting point per entry.
measured quantity: melting point

compound	data value
O=C(Nc1ccc(C(=O)N2CCc3nc(-c4ccccn4)[nH]c3-c3ccccc32)cc1)c1ccccc1-c1ccccc1	240 to 242 °C
COc1cc(CCc2cnc(N)nc2N)cc(OC)c1OC	155 to 157 °C
NCCc1c[nH]c2ccc(NC(N)=O)cc12	188 to 190 °C
CCOC(=O)Cc1sc(Sc2cc3ccccc3c(Cl)n2)nc1C	115 to 117 °C
Nc1ccc2c(c1)Cc1c(-c3ccccc3)n[nH]c1-2	228 to 230 °C
OC(CNC1CCc2ccccc2C1)COc1ccccc1Cl (stereo not given)	98 to 101 °C
O=C(Nc1ccc(N2CCS(=O)(=O)CC2)c(C(F)(F)F)c1)c1cccc2cc(Oc3cc(NC(=O)C4CC4)ncn3)ccc12	195 to 205 °C
Cc1cc(Cl)ccc1OCC(=O)N1Cc2ccc(C(=O)c3cccc4ccccc34)n2Cc2ccccc21	130 to 134 °C
Cc1cnc(-c2ccc(C(F)(F)F)cc2)n1C	130 °C
CC(C)(C)OC(=O)CCc1ccc(-c2nc(=O)c3ccccc3s2)nc1	160 to 161 °C
Cc1n[nH]c(CC#N)c1Oc1cc(Cl)cc(Cl)c1	150 to 152 °C
CC1CCCCN1C(=O)C1Cc2ccccc2N1c1ccc(=O)n(C)n1 (stereo not given)	96 to 98 °C
CCCCN1CCC(C(=O)O)(S(=O)(=O)c2ccc(OC)cc2)CC1	206 °C
CC(C)(C)OC(=O)NC1CCN(c2c(F)cc3c(=O)c(C(=O)O)cn(C4CC4)c3c2F)C1 (stereo not given)	239 to 240 °C
CCn1ncc2c(O)c3c(nc21)CCc1ccccc1C3=O	154 to 155 °C
CCCCc1c(Cc2ccc(-c3ccccc3)c(-c3nnn[nH]3)c2)c(COC)nn1CC(F)(F)F	48 °C
CCN(CC)C(=O)Sc1cc(OC)c(OC)cc1C(=O)c1ccccc1	114 to 116 °C
CC(C(=O)CCc1ccc(Cl)cc1)n1cncn1 (stereo not given)	77 to 78 °C
CCC(=O)OCC(=O)C1(OC(C)=O)CCC2C3CC(C)C4=CC(=O)CCC4(C)C3C(O)CC21C (stereo not given)	99 to 103 °C
CC(C)(C)OC(=O)NCC1CC(ON2C(=O)c3ccccc3C2=O)C1 (stereo not given)	145 to 150 °C

Where do these numbers come from? They come from a melting point compilation (Tetko et al.; mined from patent text by program, amines drawn as free bases though some values may be those of a salt).
